Molecular target: GABAA channels composed of α1β3 subunits (Rattus norvegicus, UniProt P62813+P63079)
Construct: expressed in transfected cells; host or cells: Xenopus laevis oocytes injected with cRNA transcribed from cDNA in pCMV vector
Sequence (P62813 28-455): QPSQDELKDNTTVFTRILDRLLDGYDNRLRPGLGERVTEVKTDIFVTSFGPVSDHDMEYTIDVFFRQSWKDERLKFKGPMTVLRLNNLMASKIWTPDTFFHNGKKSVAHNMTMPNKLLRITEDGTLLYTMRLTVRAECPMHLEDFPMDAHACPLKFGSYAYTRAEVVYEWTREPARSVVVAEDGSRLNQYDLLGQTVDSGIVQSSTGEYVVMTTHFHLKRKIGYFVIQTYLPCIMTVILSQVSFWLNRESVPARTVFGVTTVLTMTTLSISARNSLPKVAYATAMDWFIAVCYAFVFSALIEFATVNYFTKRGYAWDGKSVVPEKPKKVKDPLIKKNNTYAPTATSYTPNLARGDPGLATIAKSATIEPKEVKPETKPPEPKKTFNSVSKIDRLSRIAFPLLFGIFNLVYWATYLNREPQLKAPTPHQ
Sequence (P63079 26-473): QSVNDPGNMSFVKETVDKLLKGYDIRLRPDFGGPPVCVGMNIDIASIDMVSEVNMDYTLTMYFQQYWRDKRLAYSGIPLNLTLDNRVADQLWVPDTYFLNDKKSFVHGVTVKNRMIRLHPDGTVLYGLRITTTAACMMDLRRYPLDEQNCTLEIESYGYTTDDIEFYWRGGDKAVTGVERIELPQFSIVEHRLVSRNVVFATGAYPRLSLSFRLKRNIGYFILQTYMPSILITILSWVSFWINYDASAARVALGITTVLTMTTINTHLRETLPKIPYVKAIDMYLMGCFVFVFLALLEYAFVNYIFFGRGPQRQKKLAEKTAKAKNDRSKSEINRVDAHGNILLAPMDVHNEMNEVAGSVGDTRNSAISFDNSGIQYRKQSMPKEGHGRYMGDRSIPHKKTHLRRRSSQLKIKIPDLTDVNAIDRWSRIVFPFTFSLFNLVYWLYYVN
Assay: Modulation of IGABA, two-microelectrode voltage-clamp on recombinant GABAA receptors expressed in Xenopus laevis oocytes
Format: cell-based
Settings: GABA EC3-5
Result type: Hill-Coefficient (nH)
Respond using a number only.

Substance smiles: CC1=C2[C@H](/C=C(\C)C(=O)N(C)C)CC[C@@H](C)[C@H]2CC1
Hill-Coefficient (nH): 2.1

What the record says about `CC1=C2[C@H](/C=C(\C)C(=O)N3CCCCC3)CC[C@@H](C)[C@H]2CC1` : Hill-Coefficient (nH) is 1.6

What the record says about `CC1=C2[C@H](/C=C(\C)C(=O)N3CCOCC3)CC[C@@H](C)[C@H]2CC1` : Hill-Coefficient (nH) is 1.6
